# protein stability index per record follows
Test system: Saccharomyces cerevisiae
Assay: protein stability index of tFT-peptide fusion (C-terminal peptide) (PSI (0-1 scale)); higher = more stable (slower turnover)
Conditions: genetic background: wild type; temperature: 30 C
Lab note: record the figure alone, no unit after it.

Past entries and their recorded results:
> print(dat)
   record.sequence             readout.kind  observed.measurement
1     IVPFLLFYSPPA  protein stability index                 0.719
2     EPNEKEKNKEVK  protein stability index                 0.704
3     PPPPRSPPHPLL  protein stability index                  0.69

Documented protein stability index of `WAVGRGLVLSST` : 0.684

---

Test system: Saccharomyces cerevisiae
Assay: protein stability index of tFT-peptide fusion (C-terminal peptide) (PSI (0-1 scale)); higher = more stable (slower turnover)
Conditions: genetic background: das1 deletion; temperature: 37 C
Returns met if the recorded protein stability index is greater than or equal to 0.5, and not met otherwise.

Answered cases to consult:
> print(dat)
   record.sequence    group
1     ALEIIRLSHRLC      met
2     GSLGHCWFLFGV  not met

INPUT: Threshold query (protein stability index >= 0.5) on `YFIVVSWFLVCW`
OUTPUT: not met

INPUT: Threshold query (protein stability index >= 0.5) on `SRGGVFYVRIHS`
OUTPUT: met

INPUT: Threshold query (protein stability index >= 0.5) on `YTLWFLAWGLVF`
OUTPUT: not met

INPUT: Threshold query (protein stability index >= 0.5) on `GFLFVLCAWGFF`
OUTPUT: not met

---

Tested on: Saccharomyces cerevisiae
Experiment: protein stability index of tFT-peptide fusion (C-terminal peptide) (PSI (0-1 scale)); higher = more stable (slower turnover)
Details: genetic background: wild type; temperature: 30 C
# protein stability index per record follows
Lab note: record the figure alone, no unit after it.

> print(dat)
                        record.sequence             readout.kind  observed.measurement
1  STGSETKIADCR [HSM3 C-terminal 12 aa]  protein stability index                 0.695

Documented protein stability index of ITHLKAILPKYL [CCA1 C-terminal 12 aa] : 0.324

Documented protein stability index of HENSKCFTHYLI [AFR1 C-terminal 12 aa] : 0.66

---

System: Saccharomyces cerevisiae
Test: protein stability index of tFT-peptide fusion (C-terminal peptide) (PSI (0-1 scale)); higher = more stable (slower turnover)
Conditions: genetic background: wild type; temperature: 30 C
# protein stability index per record follows
Lab note: record the figure alone, no unit after it.

Past entries and their recorded results:
> print(dat)
   record.sequence  observed.measurement
1     PPHPPPTTVHLA                 0.705
2     GGDFYEGVKNGK                 0.714
3     PPGSPPSLPPLP                 0.711

Documented protein stability index of `GVWGGGGGWGVA` : 0.688

Documented protein stability index of `GCLGVRMFRVGG` : 0.59

---

Tested on: Saccharomyces cerevisiae
Assay: protein stability index of tFT-peptide fusion (C-terminal peptide) (PSI (0-1 scale)); higher = more stable (slower turnover)
Conditions: genetic background: wild type; temperature: 30 C
readout.kind: protein stability index
Lab note: record the figure alone, no unit after it.

Past entries and their recorded results:
> print(dat)
   record.sequence             readout.kind  observed.measurement
1     FLPGEAVFVYCR  protein stability index                 0.391
2     VVSVVVLVNSRG  protein stability index                 0.373
3     MDLVSEYKIKVN  protein stability index                 0.226
4     WCLLGVPVRVVV  protein stability index                 0.288
5     TRPHPLRRVFIF  protein stability index                  0.23

Documented protein stability index of `VGKGAGVRDGSR` : 0.645

Documented protein stability index of `RCIRRWPYILKL` : 0.206

Documented protein stability index of `YLMVSKMSLRIG` : 0.306

Documented protein stability index of `YFLFRYIVITVF` : 0.0569

Documented protein stability index of `GFVLMLLVRFEL` : 0.294

Documented protein stability index of `VLYCRSCFLRVS` : 0.161

Documented protein stability index of `LLCLAVVLWFVV` : 0.241

Documented protein stability index of `FSPSPVFVTCRV` : 0.218
